For each record, write down the corresponding Maximum mean fluorescence intensity.
Molecular target: T1, human MSLN-R3 protein (Met487-Ser606 of NCBI AAH09272.1) expressed on HEK293T-hMSLN-R3 cells (human, UniProt Q13421 487-606)
T1 construct: also called Region3
T1 sequence (Q13421 495-614): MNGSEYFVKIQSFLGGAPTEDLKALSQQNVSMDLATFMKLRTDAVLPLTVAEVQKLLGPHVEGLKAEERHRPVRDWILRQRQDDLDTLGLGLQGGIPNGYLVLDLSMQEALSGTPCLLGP
Assay: FACS on HEK293T-hMSLN-R3 cells
Just the number, please, no unit attached.

Request: What value of measured Maximum mean fluorescence intensity is listed for S009-F6-62.5 (antibody, human IgG1, kappa, V domains shown, human-murine chimeric antibody, human IgG1/kappa constant regions) VH: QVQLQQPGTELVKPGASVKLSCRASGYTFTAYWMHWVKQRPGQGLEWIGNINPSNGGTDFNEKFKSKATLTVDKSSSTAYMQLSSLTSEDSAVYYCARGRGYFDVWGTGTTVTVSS VL: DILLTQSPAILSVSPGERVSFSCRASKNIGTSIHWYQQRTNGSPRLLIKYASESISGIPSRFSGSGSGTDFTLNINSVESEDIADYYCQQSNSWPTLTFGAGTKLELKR ?
Response: 186

Request: Need Maximum mean fluorescence intensity, item Tab106 (YP218, hIgG1) (antibody, V domains shown, Control antibody; also called YP218 human IgG1 antibody) VH: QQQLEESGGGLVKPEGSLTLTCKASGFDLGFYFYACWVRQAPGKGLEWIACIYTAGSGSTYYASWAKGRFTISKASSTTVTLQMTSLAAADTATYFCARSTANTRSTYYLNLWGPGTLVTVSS VL: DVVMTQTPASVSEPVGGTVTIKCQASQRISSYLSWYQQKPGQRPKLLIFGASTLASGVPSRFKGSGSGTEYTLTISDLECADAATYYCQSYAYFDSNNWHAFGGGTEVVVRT
Response: 25400

Request: Need Maximum mean fluorescence intensity, item S009-F4-127.10 (antibody, human IgG1, kappa, V domains shown, human-murine chimeric antibody, human IgG1/kappa constant regions) VH: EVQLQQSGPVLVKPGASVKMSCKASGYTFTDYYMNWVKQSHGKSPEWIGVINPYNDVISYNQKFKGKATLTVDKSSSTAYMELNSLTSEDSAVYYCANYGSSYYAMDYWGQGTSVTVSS VL: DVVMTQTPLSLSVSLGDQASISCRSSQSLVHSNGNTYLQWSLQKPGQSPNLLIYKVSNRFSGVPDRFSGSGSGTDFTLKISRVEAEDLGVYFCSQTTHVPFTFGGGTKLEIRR
Response: 14200
